The measurements presented in this section are drawn from PubChem BioAssay.

target: Dihydroorotate dehydrogenase (quinone), mitochondrial (Plasmodium falciparum (isolate 3D7)) (UniProt Q08210); experiment: PfDHODH enzyme inhibitors, primary screen, biochemical, C-terminal His tag, absorbance 600 nm (AID 1175); conditions: DCIP absorbance 600 nm, higher = more signal, called active from +8 up or from −8 down;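 further: recombinant parasite enzyme with a five histidine tag at its C terminus; test concentration not given here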
Sequence (Q08210 whole entry, looked up): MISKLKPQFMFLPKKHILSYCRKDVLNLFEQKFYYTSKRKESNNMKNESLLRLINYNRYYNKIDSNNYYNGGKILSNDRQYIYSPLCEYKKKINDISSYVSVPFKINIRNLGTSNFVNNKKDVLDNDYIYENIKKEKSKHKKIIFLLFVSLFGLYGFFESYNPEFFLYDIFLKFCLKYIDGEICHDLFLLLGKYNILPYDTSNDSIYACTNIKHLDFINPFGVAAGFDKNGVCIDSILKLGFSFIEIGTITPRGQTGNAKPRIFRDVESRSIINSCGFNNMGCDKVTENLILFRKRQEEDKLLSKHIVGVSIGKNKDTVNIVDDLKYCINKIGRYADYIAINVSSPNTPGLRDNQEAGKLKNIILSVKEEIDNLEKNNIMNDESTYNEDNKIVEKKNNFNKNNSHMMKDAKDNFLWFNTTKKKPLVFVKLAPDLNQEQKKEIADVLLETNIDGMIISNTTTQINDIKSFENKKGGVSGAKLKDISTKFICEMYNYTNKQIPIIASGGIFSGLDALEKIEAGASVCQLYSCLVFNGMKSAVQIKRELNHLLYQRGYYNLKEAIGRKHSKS
composite z-score for assorted molecules
Number only, no unit.

Known results for molecules:
MOLECULE	METRIC	MEAS VALUE
COC(=O)C(CC#Cc1ccc2c(c1)[C@]1(C(=O)N2)[C@H](c2ccc(OCCO)cc2)N2[C@H](c3ccccc3)[C@H](c3ccccc3)OC(=O)[C@H]2[C@@H]1C(=O)Nc1nc2ccccc2s1)C(=O)OC	composite z-score	-0.983
CCN(CC)c1ccc(N2CC=CC34O[C@@H]5C=CCCOC(=O)C5[C@H]3C(=O)N(CCCCCCO)[C@@H]4C2=O)cc1 (stereo not given in full)	composite z-score	-0.324
Cc1ccc(S[C@]2(C(=O)NCCCN(C)C)CC(=O)N(Cc3cc(C(F)(F)F)cc(C(F)(F)F)c3)[C@@H]2c2ccc(CO)cc2I)cc1	composite z-score	-0.0868

stdin: Recorded composite z-score for O=C1C2C=CC(C(O)c3cccc4ccccc34)N(Nc3ccccc3F)C2C(=O)N1c1ccccc1 (stereo not given) , please?
stdout: -0.629

stdin: Recorded composite z-score for CO[C@H]1O[C@H](CO)[C@@H](OC(=O)Nc2ccc(Oc3ccccc3)cc2)[C@H](OC(=O)Nc2ccc3c(c2)OCO3)[C@H]1OC(=O)Nc1ccc2c(c1)OCO2 , please?
stdout: -0.227

stdin: Recorded composite z-score for O=C(CS)NCCCCCCNC(=O)[C@@H]1C[C@@H]2C(=O)NCC(=O)N2[C@@H]1c1cccc(OCCO)c1 , please?
stdout: -0.216

stdin: Recorded composite z-score for COC(=O)[C@H](Cc1ccccc1)N1CC2=C[C@@H](C3CC3)n3c(=O)n(C)c(=O)n3[C@H]2[C@@H]1[C@@H](O)Cc1ccccc1 , please?
stdout: -0.174

stdin: Recorded composite z-score for CNS(=O)(=O)c1ccc(C)cc1 , please?
stdout: -1.05

stdin: Recorded composite z-score for CCC[C@@H]1C[C@@]1(CCC)[C@@H](NC(=O)c1ccccc1)c1cccc(Cl)c1 , please?
stdout: 0.249

stdin: Recorded composite z-score for O[C@@H](Cc1ccccc1)[C@H]1C2C=CCCC=C2CN1Cc1cccc(Cl)c1 (stereo not given in full) , please?
stdout: -0.255

stdin: Recorded composite z-score for CC(C)C(CO)N1C(=O)[C@@H]2C3C(=O)OCCC/C=C\[C@H]3OC23C=CCN(CCN2CCOCC2)C(=O)[C@@H]13 (stereo not given in full) , please?
stdout: -3.09

stdin: Recorded composite z-score for [N-]=[N+]=NCc1ccccc1C[C@]1(C(N)=O)COC(c2ccc(OCCCO)cc2)=N1 , please?
stdout: -0.0854

stdin: Recorded composite z-score for C#C[C@H](O[Si](C#Cc1ccc(Oc2ccccc2)cc1)(C(C)C)C(C)C)c1ccccc1 , please?
stdout: -0.289

stdin: Recorded composite z-score for O=C(c1ccccc1)N1C(=O)[C@@]2(Cc3ccccc31)N=C(c1ccc(OCCCO)cc1)O[C@H]2c1ccccc1 , please?
stdout: -0.138

stdin: Recorded composite z-score for COC(=O)[C@@]1(Cc2ccc(OC)cc2)[C@H]2c3cc(C(=O)N4CCCC4)n(Cc4ccc(O)c(OC)c4)c3C[C@H]2CN1C(=O)c1ccccc1 , please?
stdout: 0.191
